// data source = patent US20220088180A1

# testedTarget: HLA-B*51:01 (human)
# assayInfo: radioligand competition, purified MHC
pIC50: −log10 of the molar value.
List of pIC50 values.

binder: EEFEPSTQYEY (modifications not checked) [… (SEQ ID NO: 20)]
valueObserved: < 4.15

# input Read the entry LATNNLVVM (modifications not checked) [… (SEQ ID NO: 16)] and write its reported pIC50.
# output 4.49

# input Read the entry APHGHVMVEL (modifications not checked) [… (SEQ ID NO: 14)] and write its reported pIC50.
# output < 4.15

# input Read the entry APRITFGGP (modifications not checked) [… (SEQ ID NO: 42)] and write its reported pIC50.
# output < 4.15

# input Read the entry ELPDEFVVVTV (modifications not checked) [… (SEQ ID NO: 8)] and write its reported pIC50.
# output < 4.15

# input Read the entry EIKESVQTF (modifications not checked) [… (SEQ ID NO: 15)] and write its reported pIC50.
# output < 4.15

# input Read the entry DEFVVVTV (modifications not checked) [DEFVVVTV (SEQ ID NO: 11)] and write its reported pIC50.
# output 4.89
